- Subject Of Test: T1, Anti-CRP antibody(r)
- T1 construct: also called rabbit IgG (CRP)
- Assay Explanation: labelled peptide on antibody immobilised on microplate; antigen CRP
Ends that are not written are not given here. FAM = carboxyfluorescein (FAM) fluorescent label
Task for the reader: assign each of the following binders its reported fluorescence intensity at bottom (B) of microplate before antigen binding.
Form: value (number only, do not type unit).

Suppose we examine the binder {FAM}-VYYCFQGSHVPFTK (Synthetic 14-mer homologous to the FR3 or FR4 region of the light chain; also called L2 switching peptide; second peptide compound L2) [L2 peptide] ; what fluorescence intensity at bottom (B) of microplate before antigen binding value has been reported?
20400

Looking for the measured fluorescence intensity at bottom (B) of microplate before antigen binding of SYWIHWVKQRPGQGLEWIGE (not fully specified (N-terminus), Synthetic 20-mer homologous to the FR2 region of the heavy chain; The fluorescent label differs between experiments; also called H1 switching peptide; third peptide compound H1) [H1 peptide] , can you help?
4910

Return reported fluorescence intensity at bottom (B) of microplate before antigen binding; argument: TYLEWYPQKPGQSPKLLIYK (not fully specified (N-terminus), Synthetic 20-mer homologous to the FR2 region of the light chain; The label differs between experiments; also called L1 switching peptide; first peptide compound L1) [L1 peptide]
6720

Requested field: fluorescence intensity at bottom (B) of microplate before antigen binding. Item: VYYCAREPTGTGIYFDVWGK (not fully specified (N-terminus), Synthetic 20-mer homologous to the FR3 or FR4 region of the heavy chain; The label differs between experiments; also called H2 switching peptide; fourth peptide compound H2) [H2 peptide]
22200
